Assay: Saturation solubility of enavogliflozin in aqueous excipient solutions (HPLC)
Type: physicochemical
Conditions: aqueous excipient solution (excipient in purified water), aqueous with cosolvent or surfactant or cyclodextrin, thermodynamic from solid, Cavasol™ W8 1.50 %w/v in purified water; read-out: Saturation solubility
measured attribute: solubility at 12 h (µg/mL)
Field format: number, assumed µg/mL, no unit text.

GET /values?readout=solubility at 12 h&item= OC[C@H]1O[C@@H](c2cc(Cc3ccc(C4CC4)cc3)c(Cl)c3c2CCO3)[C@H](O)[C@@H](O)[C@@H]1O
1090

====

Experiment: Saturation solubility of enavogliflozin in aqueous excipient solutions (HPLC)
Format: physicochemical
Details: aqueous excipient solution (excipient in purified water), aqueous with cosolvent or surfactant or cyclodextrin, thermodynamic from solid, Aqualon™ CMC 0.50 %w/v in purified water; read-out: Saturation solubility
measured attribute: solubility at 12 h (µg/mL)
Field format: number, assumed µg/mL, no unit text.

GET /values?readout=solubility at 12 h&item= OC[C@H]1O[C@@H](c2cc(Cc3ccc(C4CC4)cc3)c(Cl)c3c2CCO3)[C@H](O)[C@@H](O)[C@@H]1O [enavogliflozin, Enavogliflozin]
300

====

Assay: Saturation solubility of enavogliflozin in aqueous excipient solutions (HPLC)
Type: physicochemical
Details: aqueous excipient solution (excipient in purified water), aqueous with cosolvent or surfactant or cyclodextrin, thermodynamic from solid, Tween™ 80 4.00 %w/v in purified water; read-out: Saturation solubility
measured attribute: solubility at 12 h (mg/mL)
Field format: number, assumed mg/mL, no unit text.

GET /values?readout=solubility at 12 h&item= OC[C@H]1O[C@@H](c2cc(Cc3ccc(C4CC4)cc3)c(Cl)c3c2CCO3)[C@H](O)[C@@H](O)[C@@H]1O
15.8

====

Assay: Saturation solubility of enavogliflozin in aqueous excipient solutions (HPLC)
Type: physicochemical
Settings: aqueous excipient solution (excipient in purified water), water, thermodynamic from solid, Kollisolv™ PG 1.50 %w/v in purified water; read-out: Saturation solubility
measured attribute: solubility at 12 h (µg/mL)
Field format: number, assumed µg/mL, no unit text.

GET /values?readout=solubility at 12 h&item= OC[C@H]1O[C@@H](c2cc(Cc3ccc(C4CC4)cc3)c(Cl)c3c2CCO3)[C@H](O)[C@@H](O)[C@@H]1O
270

====

Experiment: Saturation solubility of enavogliflozin in aqueous excipient solutions (HPLC)
Assay type: physicochemical
Conditions: aqueous excipient solution (excipient in purified water), aqueous with cosolvent or surfactant or cyclodextrin, thermodynamic from solid, HPMC 606 0.60 %w/v in purified water; read-out: Saturation solubility
measured attribute: solubility at 12 h (µg/mL)
Field format: number, assumed µg/mL, no unit text.

GET /values?readout=solubility at 12 h&item= OC[C@H]1O[C@@H](c2cc(Cc3ccc(C4CC4)cc3)c(Cl)c3c2CCO3)[C@H](O)[C@@H](O)[C@@H]1O [enavogliflozin, Enavogliflozin]
330

====

Assay: Saturation solubility of enavogliflozin in aqueous excipient solutions (HPLC)
Type: physicochemical
Conditions: aqueous excipient solution (excipient in purified water), aqueous with cosolvent or surfactant or cyclodextrin, thermodynamic from solid, Kolliphor™ RH 40 1.00 %w/v in purified water; read-out: Saturation solubility
Procedure: According to Table 1 below, enavogliflozin in the amount corresponding to each standard solution and 70 mL of methanol were placed in a volumetric flask and then completely dissolved under ultrasonic agitation. Methanol was added thereto to adjust the total volume to 100 mL. The resulting solution was taken and filtered through a 0.45 µm RC (Regenerated Cellulose) membrane filter. The first 2 mL was discarded and then the filtrate was used as a standard solution. […]
measured attribute: solubility at 12 h (µg/mL)
Field format: number, assumed µg/mL, no unit text.

GET /values?readout=solubility at 12 h&item= OC[C@H]1O[C@@H](c2cc(Cc3ccc(C4CC4)cc3)c(Cl)c3c2CCO3)[C@H](O)[C@@H](O)[C@@H]1O
3640
